Field: koff. Provide a value for each of the binders that follow.
Target or test system: T1, Recombinant human CD5 extracellular domain (CD5-ECD) (human, UniProt P06127 25-372)
T1 construct: In-house protein made as CD5-ECD - TEV site - hGH fusion; CD5-ECD isolated by TEV cleavage and nickel column; also called CD5-ECD protein
T1 sequence: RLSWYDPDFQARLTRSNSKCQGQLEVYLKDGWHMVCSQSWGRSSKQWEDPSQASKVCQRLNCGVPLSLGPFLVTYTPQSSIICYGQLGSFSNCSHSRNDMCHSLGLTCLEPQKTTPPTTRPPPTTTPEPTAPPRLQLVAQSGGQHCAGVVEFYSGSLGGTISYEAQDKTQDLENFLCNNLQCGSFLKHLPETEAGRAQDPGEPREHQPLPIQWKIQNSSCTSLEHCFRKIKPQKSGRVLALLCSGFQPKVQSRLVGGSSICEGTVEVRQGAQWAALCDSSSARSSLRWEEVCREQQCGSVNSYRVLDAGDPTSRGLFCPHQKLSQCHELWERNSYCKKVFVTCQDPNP
Test method notes: SPR (Biacore 2000), antibody captured by anti-human Fc, CD5-ECD in solution, 1:1 fit;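 further: CM5 chip, binding curves at four CD5-ECD concentrations fitted globally, with the signal of a non-CD5-binding control antibody subtracted as reference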
# value in s⁻¹; strip the unit string

Challenge: Which koff is listed for Anti-CD5 antibody 8 (8G8) (antibody, human IgG1, V domains shown, also called Ab8; Clone 8) VH: QVQLKESGPELEKPGASVRISCKASGYSFTAYNINWVTQRDGKSLEWIGSIDPYYGDTKYNQKFKDKATLTVDKSSSTAHMQVKSLTSEDSAIYYCARRMITMGDWYFDV VL: EIVLTQSPSSLSASLGDRVTISCRASQDISNYLNWYQRKPDGTVKLLIYYTSRLQSGVPSRFSGSGSGSEYSLTISNLDQEDIATYFCQQGDALPWT ?
Response given: 9.81e-06

Challenge: Which koff is listed for Anti-CD5 antibody 31 (3P16) (antibody, human IgG1, V domains shown, also called Ab31; Clone 31) VH: EVQLKESGPELKKPGETVKISCMTSGYMFTNHGMNWVKQAPGKGLKWMGWINTYTGEPTYGDGFKGRFVFSLETSASTAYLQINNLKNEDTATYFCARRVATYFDV VL: NIVLTQSPAILSVSPGERVSFSCRASQRIGTSMNWYQQRTNGSPRLLIKSASESISGIPSRFSGSGSGTDFTLSINSVESDDVADYYCQQSNSWPLT ?
Response given: 0.000803

Challenge: Which koff is listed for Anti-CD5 antibody 32 (4F3) (antibody, human IgG1, V domains shown, also called Ab32; Clone 32) VH: EVKLVESGPELKKPGETVKISCKASGYMFTNYGMNWVKQAPGKGLKWMGWINTYTGEPTYVEDFKGRFAFSLETSANTAYLQINNLKNEDTATYFCTRRSHITLDY VL: DIVLTQSPVILSVSPGERVSLSCRASQSIGTSINWYQQRTDGSPRLLIKSASESMSGIPSRFSGSGSGTDFTLSITSVESEDIADYYCQQSNSWPLT ?
Response given: 0.000116
